Source listed as paper PMC6974622.

- Test system: multidrug resistant P. falciparum strain Dd2
- assay.text: SYBR Green I Plasmodium growth inhibition assay (fixed concentration screen and EC50)
- Type: cell-based, Plasmodium falciparum
- cond: Plasmodium falciparum; Pf Dd2, 72 h; spread given in nM

{"columns": ["structure.string", "EC50, nM"],
 "data": [
  ["Cc1cc(C)n(Cc2c(C(=O)N3CCC4(CCCCOC[C@@H]5CCCN5C(=O)c5cccc(c5)OC4)CC3)noc2C)n1", 0.9]
]}
